B1: TPR t1 (parent)
chain: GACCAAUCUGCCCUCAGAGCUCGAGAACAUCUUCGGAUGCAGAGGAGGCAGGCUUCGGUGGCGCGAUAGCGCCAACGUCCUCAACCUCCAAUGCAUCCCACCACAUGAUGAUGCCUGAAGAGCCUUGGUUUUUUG

Variants of: B1
Test: polymerase ribozyme fitness, log enrichment relative to wild type (log ratio); higher = more active; in vitro selection for triplet polymerase activity
The reader will find reported polymerase ribozyme fitness (log ratio) values listed item by item below.

BIOSEQUENCE	polymerase ribozyme fitness (log ratio)
GACCAAUCUGCCCUCAGAGCUCGAGAACAUCUUCGGAUGCAGAGGAGGCAGGCUUCGGUCACGCGAUAGCGCCAACGUCCUCAACCUCCAAUGCAUCCCAACACAUGAUGAUGCCUGAAGAGACUUGGAUUUUUG	-4.67
GACCAAUCUGCCCUCAGAGCUCGAGAACAUCUUCGGAUGCAGAUGAGGCAGGAUUCGGUGGCACGAUAGCGCCAACGUCCUCAACCUCCAAUGCAUCCCACCACAUGAUGAUACCUGAAGAGCCUUGGUUUUUUG	-2.93
GACCAAUCUGCCCUCAGAGCUCGAGAACAUCUUCGGAUGCAGAGGAGGCAGGCUUCGGUGGCGCGAUAGCGCGAACGUCCUCAACCUCCAAUGCAUCCCACCACAUGAUGAUGCCUGAAGAGCCUUGGUUUUGUG	-1.21
GACCAAUCGGCCCUCAGAGCUCGAGAACAUCUUCGGAUGCAGAGGAGGCAGGCUUCGGUGGCGCGAUAGCUCCAACGUCCUCAACCUACAAUGCAUCCCACCACAUGAUGAUGCAUGAAGAGCCUUGGUUUUUUG	-2.67
GACCAAUCUGCCCUCAGGGCUCGAGAACAUCUUCGGAUGCAGUGGAGGCAGGCUUCGGUGGCGCGAUAGCGCCAACGUCCUCAACCUCCAAUGCAUCCCAGCACAUGAUGAUGCCUGAAAAGCCUUGGUUUUUUG	-4.32
GACUAAUCUGCCAUCAGAGCUCGAGAACAUCUUCGGAUGCAGAGGCGGCGGGCUUCGGUGGCGCGAUAGCGUCAACGUCCUCAACCUCCAAUGCAUCCCACCACAUGAUGAUGCCUGAAGAGCCUUGGUUUUUUG	-3.05
GACCAAUCUGCCCUCAGAGCUCGAGAACAACUUCGGAUGCAGAGGAGGCAGGCUUAGGUGGCGCGAUAGUGCCAACGUCCUCAACCUCCAAUGCAUCCCACCACAUGAUGAUGCCUGAAGAGCCUUGGUUUUUUG	-7.2
GACCAAUCUGCCCUCAGAGCUCGGGAACAUCUUCGGAUGCAGAGGAGGCAGGCUUCGGUGGCGCGAUAGCGCAAACGUCCUCAACCUCCAAUGCAUCCCACCACAUGAUGAUGCCUGAAGAGCCUUGGUUUUUUG	-1.74
GACCAAUCUGCCCUUAGAGCUCGAGAACAUCUUCGGAUGCAGAGGAGGCAGGCUUCGGUGGCGCGAUAGCGCCAACGUUCUCAACCUCCAAUGCAUCCCACCACAUGAUGUUGCCUGAAGUGCCUUGGUUUUUUG	-3.53
GACCAAUCUGCCCUCAGAGUUCGAGAACAUCUUCGGAUGCAGAGGAGGCAGGCUUCGGUGCCGCGAUAGCGCCAACGUCCUCAACCUCCAAUGCAUCCCACCACAUGAUGGUGCCUGAAGAGCCUUGGUUUUUUG	-5.2
GACCAAUCUGCCCUCAGAGCUCGAGAACAUCUUCGGAUGCAGAGGAGGCAGGCUUCGGUGGCGCGAUAGCGCCAACGUCCUCAACCUCCAAUGAAUCCCACCACAUGAUGAUGCCUGAACAGCCUUGGUUUUUUG	-1.64
GACCAAUCUGCCCUCAGAGCUCGAGAACAUCUUCGGAUGCAGAGGAGGCAGGCUUCGGUGGCGCGAUAGCGCCAACGUCCUCAUCCUCCAAUGCAUCCCACCACAAGAUGAUGCCUGAAGAGCCUUGGUUUUUUG	-0.185
GACCAAUCGGCCCUCAGAGCUCGAGAACAUCUUCGGUUACAGAGUUGGCAGGCUUCGGUGGCGCGAUAGCGCCAACGUCCUCAACCUCCAAUGGAUCCCACCACAUGAUGAUGCCUGAAGAGCCUUGGUUUUUUG	-5.9
GACCAAUCUGCCCUCAGAGCUCGAGAACAUCUUCGGAUGCAGAGGAGCCAGGCUUCGGUGGCGCGAUAGUGCCAACGUCCUCAACCUCCAAUGCAUCCCACCACAUGAUGAUGCCUGAAGAGCCUUGGUUUUUUG	-0.829
GACAAAUCUGCCCUCAGAGCUCGAGAACAUCUUCGGAUGCAGAGGAGGCAGGCUUCGGUGGCGCGAUAGCGCCAACGUCAUCAACCUCCAAUGCAUCCCAUCACAUGAUGAUGCCUGAAGGGCCUUGGUUUUUUG	-1.22
GACCAAUCUGCCCUCAGAGCUCGAGAACAUCUUCGGAUGCAGAGGAGGCAGGCUUCGGUGGCGCGAUACCGCCAACGUCCCCAACCUUCAAUGCAUCCCACCACACGAUGAUGCCUGAAGAGCCUUGGUUUUUUG	-2.4
GACCAAUCUGCCCUCAGAGCUCGAGAACAUCUUCGGAUGCAGAGGAGGCAGGCUUAGGUGGCGCGAUAGCGCCAACGUCCUCAACCUCCAAUGCAUCCCACCACAUGAUGAAGCCUGAAGAGCCUUGGUUUUUUG	1.46
GACCAAUCUGCCCUCAGAGCUCGAGAACAUCUUUGGAUGCAGAGGAGGCAGGCUUCGGUGGCGCGAUAGCGCCAACGUCCUCAACCUCCAAUGCAUCCCACCACAUGAUGAUGCCUGAAGAGCAUUGGUUUUUUG	-2.31
GACCAAUCAGCCCUCAGAGCUCGAGAACAUCUUCGGUUGCGGAGGAGGCAGGCUUCGGUGGCGCGAUAGCGCCAACGUCCUCAACCUCCAAUGCAUCCCACCACAUGAUGAUGCCUGAAGAGCCUUGGUUUUUUG	0.164
GACCAAUCUGCCCUAAGAGCUCGAGAACAUCUUCGGAUGCAGAGGAGGCAGUCUGCGGUGGCGCGAUAGCGCCAACGUCCUCAACCUCCAAUGCAUCCCACCACAUGAUGAUGCCUGAAGAGCCUUGGUUUUUUG	-1.52
GACCAAUCUGCCCUCAGAGCUCGAGAACAUCUUCGGAUGCAGAGGAGGCAGGCUUCGGUGGCGCGAUAGCGUUAACGUCCUCAACCUUCAAUGCAUCCCACCACAUGAUGAUUCCUGAAGAGCCAUGGUUUUUUG	-5.18
GACCAAUCUGCCCUCAGAGCUCGAGAAAAUCUUCGGAUGGAGAGGAGGCAGGCUUCGGUGGCGCGAUAGCGCCAACGUCCUCAACCUCCAAUGCAUCCCACCACAUGAUGAUGCCUGAAGAGCCUUGGUUUUUUG	-6.86
GACCAAUCUGCCCUCUGAGCUCGAGAACAUCCUCGGAGGCAGAGGAGGCAGGCUUCGGUGGCGCGAUAGCACCAACGUCCUCAACCUCCAAUGCAUCCCACCACAUGAUGAUGGCUGAAGUGCCUUGGUUUUAUG	-6.3
GACCAAUCUGCCCUCAGAGCUCGAGAACAUCUUCGGAUGCAGAGGAGGCAGGCUUCGGUGGCGCGAUAGCGGCAACGCCCUCAACCUCCAAUGCAUCCCACCACAUGAAGAUGCCUGAAGAGCCUUGGUUUUUUG	-6.55
GACCAAUCUGCCCUCAGAGCUCGAGAAUAUCUUCGGAUGCAGAGGAGGCAGGCUUCUGUGGCGCGAUAGCGCCAACGUCCUCAACCUCCAAUGCAUCCCACCACAUGAUGAUGCCUGAAGAGCCUUGGUUUUUUG	-1.3
GACCAAUCUGCCCUCAGAGCUCGAGGACAUCUUCGGAUGCAGAGGAGGCAGGCUUCGGUGGCGCGAUAGCGCCAACGUCUUCAACCUCCAAUGCAUCCCACCACAUGAUGAUGCCUGAAUAGCCUUGGUUUUUUG	-3.13
GACCAAUCUGCCCUCAGAGCUUGAGAACAUCUUCGGAUGCAGAGAAGGCAGGCUUCGGUGGCGCGAUAGCGCCAACGUCCUCAACCUCCAAUGCAUCCCACCACAUGAUGAUGCCUGAAGAGCCUUGGUUUUUUG	-4.02
GACCAAUCUGCCUUCAGAGCUCGAGAACAUCUUCGGAUGCAGAGGAGGCAGGCUUCGGUGGCGCGAUAGCGCCAACGUCCUCAACCUCCAAUGCAUCCCACCACAUGAUGAUGCCUGAAGAGUCUUGGUUUAUUG	1.91
GACCAAUCUGCCCUCAGAGCUCGAGAACAUCUUCGGAUGCAGAGGAGGCAGGCUUCGGUGGCGCGAUAGCGCCAACGUCCUCAACCUCCAAUGCAUCCCACCACAUGAUGAUGCCUGAAGAACCUUGGUUUUGUG	-0.871
GACCAGUCUGCCCUCAGAGCUCGAGAACAUCUUCGGAUGCAGAGGAGGCAGGCUUCGGUGGCGCGAUAGCGCCUAUGUCCUCAACCUCCAAUGCAUCCCACCACAUGAUGAUGCAUGAAGAGCCUUGGUUUUUUG	-0.102
GACCAAUCUGCCGUCAGAGCUCGAGAACAUCUUCGGAUGCAGAGGAGGCAGGCUUCGGUGGGGCGAUAGCGCCAACGUCCUCAACCUCCAAUGCAUCCCACCACAUGAUGAUGCCUCAAGAGCCUUGGUUUUUUG	-8.19
GACCAAUCUGCUCUCAGAGCUCGAGAACAUCUUCGGAUGCAGAGGCUGCAGGCUUCGGUGGCGCGAUAGCGCCAACGUCCUCAACAUCCAAUGCAUCCCACCACAUGGUGAUGCCUGAAGAGCCUUGGUUUUUUG	-1.87
GACCAAUCUGCCCUCAGAGAUCGAGAACAUCUUCGGAUGCAGAGGAGGCAGGCUUCGGUGGCGCGAUAGCGCCAACGUCCUCAACCUCCAAUGCAUCCCACCACAUGAUGACGCCAGAAGAGCCUUGGUUUUUUG	-3.11
GACCAAUCUGCCCUCAGAGCUCGAGAACAUCUUCGGAUGCAGAGGAGGCAGGCUUCGGUGUCGCGAUAGCGCCAACGUCCUCAACCUCCAAUGGAUCCCACCACAUGAUGAUGCCUGAAGAGCCUUGGUUUUUUG	-0.934
GACCAAUCUGCCCUCAGAGCUCGAGAACAUCUUCGGAUGCAGAGGAGGCAGGCUUCGGUGUCGCGAUAGCGCCAACGUCCUCAACCUCCAAUGCAUCCCACCACAUGAUGAUGCCUGAAGAGCCUUGGAUUUUUG	-1.21
GACCAAUCUGCCCUCCGAGCUCGAGAACAUCUUCGGAUGCAGAUGAGGCAGGCUUCGGUGGCGCGAUAGCGCCAACGUCCUCAACCUCCAAUGCAUCCCACCACAUGAUGAUGCCUGAAGAGCCGUGGUUUUUUG	-4.42
GACUAAUCUGCCCUCAGAGCUCGAGAACAUCUUCGGAUGCAGAGGAGGCAGGCUUCGGUUGCGCGAUAGCGCCAACGUCCUCAACCUCCAAUGCAUCCCACCACAUGAUGAUGUCUGAAGAGCCUUGGUUUUUUG	-3.78
GUCCAACCUGCCCUCAGAGCUCGAGAACAUCUUCGGAUGCAGACGAGGCAGCCUUAGGUGGCGCGAUAGCGCCAACGUCCUCAACCUCCAAUGCAUCCCACCACAUGAUGAUGCCUGAAGAGCCUUGGUUUUUUG	-4.24
GACCAAUCUGUCCUCAGAGCUCGAGAACAUCUUCGGAUGCAGAGGAGGUAGGCUUCGGUGGCACGAUAGCGCCAACGUCCUCAACCUCCAAUGCAUCCCACCACAUGAAGAUGCCUCAUGAGCCUUGGUUUUUUG	-7.12
GACCAAUCUGCCCUCAGAGCUCGAGAACAUCUUCGGAUGCAGAGGAGGCAGGCUUCGGUGGCGCGAUAGCGGCAACGUCCUCAACCUCCAAUGCAUCCCACCACAUGAUGAUGCCUGAAGAGCCUUCGUUUUUUG	-0.368
GACCAAUCUGCCCUUAGAGCUCGAGAACAUCUUCGGAUGCACAGGAGGCAGGCUUCGGUGGCGCGAUAGCUCCAACGUCCUCAACCUCCAAUGCAUCCCACCACAUGAUGAUGCCUGAAGAGCCUUGGUUUUUUG	-3.24
GACCAAUCUGGCCUCAAAGCUCGAGAACAUCUUCGGAUGCAGAGGAGGCAGGCUUCGGUGGCGCGAUAGCGCCAACGUCCUCAACCUCCAAUGCAUCCCACCACAUGAUGAUGCCUGAAGAGCCUUGGUUUUUUG	-3.46
GAUCAAUCUGCCCUCAGAGCUCGAGAACAUCUUCGGAUGCAGAGGAGGCAGGCUUCGGUGGCGCGAUAGAGCCAACGUCCUCAACCUCCAAUGCAUCCCACCACAUGAUGAUGCCUGAAGAGCCUUGGUUUUUUG	-1.81
GACCAAUCUGCCCUCAGAGCUCGAGAACAUCUUCGGAUGCAGAGGAAGCUGGCUUAGGUGGCGCGAUAUCGCCAACCUCCUCAACCUCCAAUGCAUCCCACCACAUGAUGAUGCCUGAAGAGCCUUGGUUUUUUG	-1.54
GACCAAUCUGCCCUCAGAGCUCGAGAACAUCUUCGGAUGCAGAGGAGGCAGGCUUCGGUGGCGCGAUAGCGUCAACGUCCUCAACCUCCAAUGCAUCCCACCACAUGAUGAUGCCUGAUGAGCCUUGGUUUUUUG	-0.327
GACCAAUCUGCCCUCAGAGCUCGAGAACAUCUUCGGAUGCAGAGGAGGCAGGCUUCGGUGGCGUGAUAGCGCCAACGUCCUCAACCUCCAAUGCACCCCACCACAUGAUGAUGCCUGAAGAGCCUUGGUUUAUUG	-0.407

These data points were gathered from the RNAGym collection of RNA variant scans (doi:10.1073/pnas.2313332121).
